GI50 by entry:
Tested on: OVCAR3 cells
Assay: MTT proliferation assay, OVCAR3;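 also: compound given as an 8- or 10-point series, one day after plating, with exposure covering roughly 3-4 cell doublings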
Format: cell-based
Details: 5 days compound exposure, 1:3 serial dilution starting at 10 μM
*1 amine or outer side, *2 acyl side, *3 side chain or, on linkers, in order; H or OH if unused. Where a SMILES comes first, the peptide text is derived from it. Bridges are numbered along the chain shown (N, C = ends). [ ]: non-standard residue; d: D form. The star is where a group is joined. X105 = CN([C@@H](Cc1cc(Cl)ccc1-c1cnn(C2CCOC2)c1)C(=O)[*:2])[*:1]; NMehhhLys(Me) = CN([C@@H](CCCCCCCN(C)[*:3])C(=O)[*:2])[*:1]; cBuCO(3,3-F2-1-CF3) = O=C(C1(C(F)(F)F)CC(F)(F)C1)*; NMePhe(2,5-Cl2) = CN[C@@H](Cc1cc(Cl)ccc1Cl)C(=O)O; Pro(trans-4-F) = O=C(O)[C@@H]1C[C@@H](F)CN1; Gly(cPr) = N[C@H](C(=O)O)C1CC1
Reply with just the number (in nM).

{"compound": "CC(C)C[C@@H]1NC(=O)[C@@H](N(C)C(=O)[C@@H](NC(=O)[C@@H]2C[C@@H](F)CN2C(=O)C2(C(F)(F)F)CC(F)(F)C2)C2CC2)CCCCCCCN(C)C(=O)[C@H](Cc2cc(Cl)ccc2-c2cnn(C3CCOC3)c2)N(C)C1=O (stereo partly drawn) [Example 113] ({cBuCO(3,3-F2-1-CF3)}-[Pro(trans-4-F)][Gly(cPr)][NMehhhLys(Me)]L[X105]; lactam 3-C)", "readout_units": "nM", "quantitative_result": 10}

Please fill in: GI50 reported for CC(C)C[C@@H]1NC(=O)[C@@H](N(C)C(=O)[C@@H](NC(=O)[C@@H]2C[C@@H](F)CN2C(=O)C2(C(F)(F)F)CC(F)(F)C2)C2CC2)CCCCCCCN(C)C(=O)[C@H](Cc2cc(Cl)ccc2Cl)N(C)C1=O [Example 25] ({cBuCO(3,3-F2-1-CF3)}-[Pro(trans-4-F)][Gly(cPr)][NMehhhLys(Me)]L[NMePhe(2,5-Cl2)]; lactam 3-C) = 40
